Reference source for all entries: patent US20190248902A1

- measured on: T1, recombinant, soluble human ASGR-1 (human, UniProt P07306 62-291)
- T1 construct: biotinylated in the binning assay; also called soluble huASGR-1; Soluble ASGR-1 (Amgen)
- T1 sequence: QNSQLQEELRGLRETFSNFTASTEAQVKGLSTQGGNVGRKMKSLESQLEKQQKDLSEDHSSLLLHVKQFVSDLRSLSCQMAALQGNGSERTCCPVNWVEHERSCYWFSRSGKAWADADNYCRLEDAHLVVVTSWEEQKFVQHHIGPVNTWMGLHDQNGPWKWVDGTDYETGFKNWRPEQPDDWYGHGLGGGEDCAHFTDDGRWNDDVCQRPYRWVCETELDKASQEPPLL
- protocol notes: Octet BLI dissociation, pH 5.6 plus calcium
- Method: The relative dissociation of ASGR-1 from antibodies was measured using a label-free assay on an OctetHTX instrument (Fortebio). Antibody samples were captured on anti-HuFc kinetic biosensors (ForteBio cat #18-5064) at 5 ug/mL in assay buffer (10 mM Tris, 0.1% Triton, 150 mM NaCl, 1 mg/mL BSA, 1 mM CaCl2, pH7.4) for three minutes. […] Soluble ASGR-1 (Amgen) at 6 ug/ml in assay buffer was added and association to the antibodies was monitored for two minutes. […]
quantity name: % Change Compared to pH 7.4 + Calcium (%)
Give bare numbers, in %.

Look over these answered cases.
208A2 (antibody, V domains shown, hybridoma mAb) VH: QVQLQESGPGLVKPSETLSLNCTVSGGSIRSYYWSWIRQPAGKGLEWIGRIYTSGSTDYNPSLKSRITMSVDTSKNQFSLKLSSVTAADTAVYYCARGFGDWDYWGQGTLVTVSS VL: DIQMTQSPSSLSASVGDRVTITCRTSQGIRNDLGWYQQQPGKTPKRLIYAASSLLSGVPSRFSGSRSGTDFTLTISSLQPEDFATYYCLQYNSYPPTFGQGTRLEIK = -10
179C2 (antibody, V domains shown, hybridoma mAb) VH: QVQLVESGGGVVQPGRSLRLSCAASGFTFSSYGMHWVRQAPGKGLEWVALIFYDGSNKYYADSVKGRFTISRDNSKNTLFLQMNSLRAEDTAVYYCARRYSGSWSGGMDVWGQGTTVTVSS VL: DIVMTQTPLSLSVTPGQPASISCKSSQSLLHSEGKTYLYWYLQKPGQPPQLLIYEVSHRFSGVPDRFSGSGSGTDFTLKISRVEAEDVGVYYCMQSIQVLTFGGGTKVEIK = 0

Given the entry 148E10 (antibody, V domains shown, hybridoma mAb) VH: QVQLVESGGGVVQPGRSLRLSCAASGFTFSSYGMHWVRQAPGKGLEWVAVIWFDGSNKYYVDSVKDRFTISRDNSKNTLYLQMNSLRAEDTAVYYCARDRVEGSGTPYYYYGMDVWGQGTTVTVSS VL: SYELTQPPSVSVSPGQTASITCSGDKLGNKYVCWYQQRPGHAAVLIIYQDSKRPSGIPERFSGSNSGNTATLTISGTQAMDEADYFCQAWDRNTYVVFGGGTKLTVL , report its measured % Change Compared to pH 7.4 + Calcium.
19
